System: Hepatotoxicity
Procedure Details: FDA HLAED, alkaline phosphatase increase
Run Parameters: human
Recorded Endpoint: Alkaline Phosphatase Increase - Index Value

1) COc1cc([C@@H]2c3cc4c(cc3[C@@H](O[C@@H]3O[C@@H]5CO[C@@H](c6cccs6)O[C@H]5[C@H](O)[C@H]3O)[C@H]3COC(=O)[C@H]23)OCO4)cc(OC)c1O [TENIPOSIDE] :: 0

Please go through the list and note Alkaline Phosphatase Increase - Index Value for each compound.
1. CC(C)(C#N)c1cc(Cn2cncn2)cc(C(C)(C)C#N)c1
2. CCCC1O[C@@H]2C[C@H]3[C@@H]4CCC5=CC(=O)C=C[C@]5(C)[C@H]4[C@@H](O)C[C@]3(C)[C@]2(C(=O)CO)O1 (stereo partly drawn) [BUDESONIDE]

Response line:
[6.4, 0.2]
